// provenance: PubChem BioAssay (NCI)

- Test system: T-47D breast
- PROTOCOL: NCI tumour cell line growth inhibition, 48 h
# TGI per entry

Below, 5 compounds whose answers are already recorded.
1. CC[C@]12C=CCN3CC[C@]4(C(=C(C(=O)OC)C1)Nc1cc5c(cc14)[C@@H]1[C@H](O5)[C@@H](O)[C@@]4(CC)CC(C(=O)OC)=C5Nc6ccccc6[C@@]56CCN1[C@@H]46)[C@@H]32
> 100 µM
2. COc1ccccc1/C=C1\CCC(Cc2ccccc2)(CN(C)C)C1=O (stereo not given)
> 100 µM
3. CCOC(=O)/C(=C\c1c[nH]c2ccccc12)P(=O)(OCC)OCC
> 100 µM
4. CC(C)C[C@H](NC(=O)[C@@H](Cc1ccccc1)n1ccc(Nc2ccccc2)cc1=O)B(O)O
3.97 µM
5. COc1cc2c(Nc3ccc(-c4ccc(N)cc4)cc3)ncnc2c(OC)c1OC
86.7 µM

Fill blank: measured TGI of the compound O=C(c1ccccc1)c1ccc(N2C(=O)/C(=C/c3ccccc3S)N=C2c2ccccc2)c(N2C(=O)/C(=C/c3ccccc3S)N=C2c2ccccc2)c1 is ____.
> 100 µM

What about this compound? CC(=O)N1C(c2[nH]c3ccccc3c2Cc2ccccc2)CCN1c1ccccc1 (stereo not given)
> 10 µM

Same again, this time with CC1(C)N=C(C(N)=O)c2ncn(Cc3ccccc3)c2N1
> 100 µM

Please do the same for COc1cc(-c2nc(N)c(C#N)c3c2CCS(=O)(=O)c2ccc(C)cc2-3)cc(OC)c1OC as well.
> 100 µM

Here is the next compound: CCCCCC(=O)OC[n+]1ccc2c(C)c3[nH]c4ccc(OC)cc4c3c(C)c2c1
13.1 µM

Also CSC1=CC(=O)c2ccccc2C1=O , if possible.
2.1 µM

How about this compound: CN(C)c1n2c3ccc([N+](=O)[O-])cc3n3c(N(C)C)[n+]4ccccc4c3c2c2cccc[n+]12
> 100 µM

And for O=C(Nn1c(-c2ccccc2)nc2ccccc2c1=O)c1cccc([N+](=O)[O-])c1 ?
> 100 µM

What do you have for COc1ccc(/C(C)=C2\CCCN(Cc3ccccc3)C2)cc1 ?
77 µM

Quick one: COc1ccc(-c2cc(=O)c3c(OC)c4ccoc4c(/C=C/C=O)c3o2)cc1
> 100 µM

Moving on to Nc1ncnc2c1ccn2CC#CCO
> 100 µM

One more compound: NS(=O)(=O)c1ccc(N=Nc2c(O)[nH]c3ccc(C(=O)NCCCn4ccnc4)cc23)cc1
> 25 µM

Same question, CC(=Nc1ccc(Cl)cc1)c1ccncc1 this time
> 100 µM

Repeat for the following compound: NC(=O)c1c[nH]c2ncnc(N)c12
> 100 µM

Please answer likewise for CCCCC/C=C\C=C\CCCCCCCCC(=O)OC
> 100 µM

----------
- System: SW-620 colon
- PROTOCOL: NCI tumour cell line growth inhibition, 48 h
PARAMETER MEASURED: TGI

1. CC[C@]12C=CCN3CC[C@@]4(c5ccc(OC)cc5N(C)[C@H]4[C@@](O)(C(=O)OC)[C@@H]1OC(=O)CCC(=O)O[C@H]1CC[C@H]4[C@@H]5CCC6=CC(=O)CC[C@@H]6[C@H]5CC[C@]14C)[C@@H]32
> 50 µM
2. O=C1c2ccccc2C(=O)c2c1oc1cc(O)c(Cl)cc21
24.9 µM
3. CN1CCCS/C1=C1/SC(=S)N(c2ccccc2)C1=O
> 100 µM
4. CC1(C=O)CC(CCc2ccccc2)NC1Cc1ccc(O)cc1 (stereo not given)
62.3 µM
5. OC1C2CCCCN2C[C@@H](O)[C@H]1O (stereo not given in full)
> 100 µM

Could you tell me which TGI is on file for COc1ccc(-c2nc3sccn3c2-c2ccnc(NCCNS(=O)(=O)c3ccc(C(F)(F)F)cc3)n2)cc1 ?
38.9 µM

Also CCCCC(CC)C(=O)Oc1ccc(C(=O)c2ccccc2)c(O)c1 (stereo not given) ?
> 100 µM

Another: CC(=O)OC(C(=O)[O][Ge]([CH3])([CH3])[CH3])c1ccccc1 (stereo not given)
> 100 µM

Same thing, different compound: COc1ccc(S(=O)(=O)N/N=C(\C)CN2C(=O)c3ccccc3C2=O)cc1OC
> 100 µM

Same again, this time with CCOC(=O)C#Cc1cccc(C#CC(=O)OCC)c1
14.6 µM

Repeat with CCCCC/C=C\C=C\CCCCCCCCC(=O)OC
> 100 µM

And what about the compound CC(=O)NC1C(OCc2ccccc2)OC(CO)C(O)C1OCC(=O)NC(C(=O)NC(CCC(=O)NCCCCCC(=O)Nc1ccc2c(c1)CN1C(=O)c3ccccc3C1=N2)C(N)=O)C(C)C (stereo not given) ?
> 100 µM

Continue with CC(=O)OCc1nnn2c1C(OC(C)=O)CC2 (stereo not given)
> 100 µM
